# Experiment notes: MTT assay for cytotoxicity
# Type: cell-based, Human
# Run conditions: human, HepG2.2.15 cells, half (50%) lethal concentration

Molecule	CC50 at 8 days
CCOC(=O)CCNc1nc(F)c(-c2nn(Cc3ccc(C#N)cc3)c(=O)c3ccccc23)cc1Cl [IV-71]	> 100 µM
N#Cc1ccc(Cn2nc(-c3ccc(N4CCC4)nc3F)c3ccccc3c2=O)cc1 [IV-11]	98.5 µM
N#Cc1ccc(Cn2nc(-c3cc(O)cnc3F)c3ccccc3c2=O)cc1 [Compound I-43]	> 100 µM
CNc1ccc(-c2nn(Cc3ccc(C#N)cc3)c(=O)c3ccccc23)c(F)n1 [IV-8]	> 100 µM
COc1ccc2c(=O)n(Cc3ccc(Cl)cc3)nc(-c3ccc(C)nc3F)c2c1 [Compound V-5]	> 100 µM
O=c1c2ccccc2c(-c2cccnc2)nn1Cc1ccc(Cl)cc1 [Compound I-2]	98.7 µM
CN(C)Cc1ccc(-c2nn(Cc3ccc(Cl)cc3)c(=O)c3ccccc23)c(F)n1 [Compound I-33]	> 100 µM
CC(C)(C)OC(=O)COCCNc1nc(F)c(-c2nn(Cc3ccc(C#N)cc3)c(=O)c3ccccc23)cc1Cl [IV-59]	> 100 µM

====

# Experiment notes: Tissue distribution in mice
# Assay type: in vivo
# Run conditions: mouse, plasma, po 10 mg/kg, 1 h, read-out: Mean drug concentration, Plasma
Observation type: concentration at 1 h (ng/mL)

Compound	Observed result
Cc1ccc(-c2nn(Cc3ccc(Cl)cc3)c(=O)c3ccccc23)c(F)n1	61
Cc1ccc(-c2cc(C)c(=O)n(Cc3ccc(Cl)cc3)n2)c(F)n1 [I-88, reference compound]	169
Cc1cc(-c2ccc(F)nc2F)nn(Cc2ccc(Cl)cc2)c1=O [I-70, reference compound]	161
N#Cc1ccc(Cn2nc(-c3ccc(F)nc3F)c3ccccc3c2=O)cc1	154
N#Cc1ccc(Cn2nc(-c3ccc(C(F)(F)F)nc3F)c3ccccc3c2=O)cc1	549
Nc1ccc(-c2nn(Cc3ccc(Cl)cc3)c(=O)c3ccccc23)c(F)n1	33.3

====

# Experiment notes: MTT assay for cytotoxicity
# Type: cell-based, Human
# Run conditions: human, HepG2.2.15 cells, half (50%) lethal concentration

Compound	Measurement unit	Comparison symbol	CC50 at 8 days
O=c1c2ccccc2c(-c2ccc(F)nc2F)nn1Cc1ccc(Cl)cc1 [Compound I-9]	µM	=	40.7
COCc1ccc(-c2nn(Cc3ccc(C#N)cc3)c(=O)c3ccccc23)c(F)n1 [IV-22]	µM	>	100
Cc1cnc(-c2nn(Cc3ccc(Cl)cc3)c(=O)c3ccccc23)cn1 [III-1]	µM	=	87.8
O=c1c2ccccc2c(-c2ccc(NCC3CCOCC3)nc2F)nn1Cc1ccc(Cl)cc1 [Compound I-30]	µM	>	100
N#Cc1ccc(Cn2nc(-c3cc(Cl)cnc3F)c3ccccc3c2=O)cc1 [Compound I-40]	µM	>	100
O=c1c2ccccc2c(-c2c(F)cc(F)nc2F)nn1Cc1ccc(Cl)cc1 [Compound I-23]	µM	>	100
CC(C)(C)OC(=O)COCCNc1ccc(-c2nn(Cc3ccc(C#N)cc3)c(=O)c3ccccc23)c(F)n1 [IV-58]	µM	>	100
CC1(C)OCC(CNc2ccc(-c3nn(Cc4ccc(C#N)cc4)c(=O)c4ccccc34)c(F)n2)O1 (centres unmarked) [IV-78]	µM	>	100
CCNCCNc1ccc(-c2nn(Cc3ccc(C#N)cc3)c(=O)c3ccccc23)c(F)n1 [IV-47]	µM	=	13
CN(C)CCNc1ccc(-c2nn(Cc3ccc(C#N)cc3)c(=O)c3ccccc23)c(F)n1 [IV-14]	µM	>	100
[2H]C([2H])(c1ccc(Cl)cc1)n1nc(-c2ccc(F)nc2F)c2ccccc2c1=O [Compound I-27]	µM	>	100
Cc1ccc(-c2nn(Cc3ccc(Cl)cc3)c(=O)c3ccc(C#N)cc23)c(F)n1 [Compound V-7]	µM	>	100
N#Cc1ccc(Cn2nc(-c3cc(Cl)c(NCCCCO)nc3F)c3ccccc3c2=O)cc1 [IV-69]	µM	=	25
[2H]C([2H])(NC)c1ccc(-c2nn(Cc3ccc(Cl)cc3)c(=O)c3ccccc23)c(F)n1 [Compound I-38]	µM	=	81
N#Cc1ccc(Cn2nc(-c3cc(Cl)c(NCCO)nc3F)c3ccccc3c2=O)cc1 [IV-77]	µM	=	32.1
Cc1ccc(-c2nn(Cc3ccc(Cl)cc3)c(=O)c3ccccc23)c(F)n1 [Compound I-10]	µM	=	81.8
CN(C)CCCNc1ccc(-c2nn(Cc3ccc(C#N)cc3)c(=O)c3ccccc23)c(F)n1 [IV-39]	µM	=	18.4

====

# Experiment notes: Tissue distribution in mice
# Type: in vivo
# Run conditions: mouse, liver, po 10 mg/kg, 3 h, read-out: Mean drug concentration, Liver
# Description: 10 μl of a plasma and tissue sample was placed in a 1.5 ml centrifuge tube, added with 100 μl of an internal standard solution (5.00 ng/ml verapamil and 50.0 ng/ml Glibenclamide solution in acetonitrile), vortexed for 60 seconds, and then centrifuged for 3 min (at 12000 rpm); 75 μl of the supernatant was transferred to a 96-well plate loaded with an equal volume of water, and shaken for mixing well and then analyzed. The injection volume was 10 μl. […]
Assign 1 to entries whose concentration at 3 h meets or exceeds 1000 ng/g; assign 0 to the rest.

Compound	Class assignment
Nc1ccc(-c2nn(Cc3ccc(Cl)cc3)c(=O)c3ccccc23)c(F)n1	1
N#Cc1ccc(Cn2nc(-c3ccc(F)nc3F)c3ccccc3c2=O)cc1	1
N#Cc1ccc(Cn2nc(-c3ccc(C(F)(F)F)nc3F)c3ccccc3c2=O)cc1	1
Cc1ccc(-c2cc(C)c(=O)n(Cc3ccc(Cl)cc3)n2)c(F)n1 [I-88, reference compound]	0
Cc1ccc(-c2nn(Cc3ccc(Cl)cc3)c(=O)c3ccccc23)c(F)n1	0

====

# Experiment notes: MTT assay for cytotoxicity
# Assay type: cell-based, Human
# Run conditions: human, HepG2.2.15 cells, half (50%) lethal concentration
Reported CC50 at 8 days values are given for each entry in this list.

Smiles representation	Measurement unit	Comparison symbol	CC50 at 8 days
CS(=O)(=O)CCNc1nc(F)c(-c2nn(Cc3ccc(C#N)cc3)c(=O)c3ccccc23)cc1Cl	µM	>	100
CC(=O)Nc1ccc(-c2nn(Cc3ccc(C#N)cc3)c(=O)c3ccccc23)c(F)n1	µM	=	47.9
[2H]C([2H])(c1ccc(-c2nn(Cc3ccc(Cl)cc3)c(=O)c3ccccc23)c(F)n1)N(C)C	µM	=	95

====

Reported CC50 at 8 days values are given for each entry in this list.
# Experiment notes: MTT assay for cytotoxicity
# Format: cell-based, Human
# Run conditions: human, HepG2.2.15 cells, half (50%) lethal concentration
Observation type: CC50 at 8 days

Molecule	Observation type	Observed result
CCOCCNc1ccc(-c2nn(Cc3ccc(C#N)cc3)c(=O)c3ccccc23)c(F)n1	CC50 at 8 days	> 100 µM
COCc1ccc(-c2nn(Cc3ccc(Cl)cc3)c(=O)c3ccccc23)c(F)n1	CC50 at 8 days	> 100 µM
[2H]C(c1ccc(C#N)cc1)n1nc(-c2ccc(F)nc2F)c2ccccc2c1=O (stereo not drawn)	CC50 at 8 days	> 100 µM
COCCNc1ccc(-c2nn(Cc3ccc(C#N)cc3)c(=O)c3ccccc23)c(F)n1	CC50 at 8 days	> 100 µM
COc1cc2c(-c3ccc(C)nc3F)nn(Cc3ccc(Cl)cc3)c(=O)c2cc1OC	CC50 at 8 days	> 100 µM
O=c1c2ccccc2c(-c2ccc(C3CC3)nc2F)nn1Cc1ccc(Cl)cc1	CC50 at 8 days	> 100 µM
N#Cc1ncc(-c2nn(Cc3ccc(Cl)cc3)c(=O)c3ccccc23)cn1	CC50 at 8 days	32.4 µM
CNc1ccc(-c2nn(Cc3ccc(Cl)cc3)c(=O)c3ccccc23)c(F)n1	CC50 at 8 days	15.7 µM
COCCCNc1ccc(-c2nn(Cc3ccc(C#N)cc3)c(=O)c3ccccc23)c(F)n1	CC50 at 8 days	43.7 µM

====

# Experiment notes: MTT assay for cytotoxicity
# Assay type: cell-based, Human
# Run conditions: human, HepG2.2.15 cells, half (50%) lethal concentration
Reported CC50 at 8 days values are given for each entry in this list.
Observation type: CC50 at 8 days (µM)

Smiles representation	Measurement unit	Comparison symbol	Observed result
CC(C)(C)Nc1ccc(-c2nn(Cc3ccc(Cl)cc3)c(=O)c3ccccc23)c(F)n1	µM	=	10.3
COc1ncc(-c2nn(Cc3ccc(Cl)cc3)c(=O)c3ccccc23)cn1	µM	>	100
COCCNc1nc(F)c(-c2nn(Cc3ccc(Cl)cc3)c(=O)c3ccccc23)cc1Cl	µM	=	26.6
CCOCCCNc1nc(F)c(-c2nn(Cc3ccc(C#N)cc3)c(=O)c3ccccc23)cc1Cl	µM	=	54.8

====

Reported CC50 at 8 days values are given for each entry in this list.
# Experiment notes: MTT assay for cytotoxicity
# Type: cell-based, Human
# Run conditions: human, HepG2.2.15 cells, half (50%) lethal concentration
Observation type: CC50 at 8 days (µM)

Compound	Measurement unit	Comparison symbol	Observed result
N#Cc1ccc(Cn2nc(-c3cc(Cl)c(N)nc3F)c3ccccc3c2=O)cc1	µM	=	10.2
COCCCNc1nc(F)c(-c2nn(Cc3ccc(C#N)cc3)c(=O)c3ccccc23)cc1Cl	µM	=	181
COCCOCCOCCNc1nc(F)c(-c2nn(Cc3ccc(C#N)cc3)c(=O)c3ccccc23)cc1Cl	µM	>	100
Cc1ncc(-c2nn(Cc3ccc(Cl)cc3)c(=O)c3ccccc23)cn1	µM	=	97.6
N#Cc1ccc(Cn2nc(-c3cc(Cl)c(NCCC(=O)O)nc3F)c3ccccc3c2=O)cc1	µM	>	100
[2H]C(c1ccc(Cl)cc1)n1nc(-c2ccc(F)nc2F)c2ccccc2c1=O (stereo not shown)	µM	>	100
N#Cc1ccc(Cn2nc(-c3ccc(NC4CC4)nc3F)c3ccccc3c2=O)cc1	µM	=	78.5
Cc1ccc(-c2nn(Cc3ccc(Cl)cc3)c(=O)c3cc(C)c(C)cc23)c(F)n1	µM	>	100
COC(=O)CCCNc1ccc(-c2nn(Cc3ccc(C#N)cc3)c(=O)c3ccccc23)c(F)n1	µM	>	100
Nc1ncc(-c2nn(Cc3ccc(Cl)cc3)c(=O)c3ccccc23)cn1	µM	=	41.5
